experimental_setup: 283.15 K; 35000 kPa; Liquid; Vibrating tube method
outcome_measure: mass density (kg/m3)

# compound, mass density (kg/m3)
rows = [
    ("CC(C)OC(C)C [diisopropyl ether]", 767.08),
    ("CCCCCOCCCCC [dipentyl ether]", 814.44),
    ("CCOC(C)(C)C [2-ethoxy-2-methylpropane]", 782.33),
    ("COC(C)(C)C [2-methoxy-2-methylpropane]", 782.29),
    ("CC(C)CCOCCC(C)C [di-(3-methylbutyl) ether]", 807.58),
    ("CCCCOC [butyl methyl ether]", 785.29),
    ("CCCCOCC [butyl ethyl ether]", 788.24),
    ("CCCOCCC [dipropyl ether]", 786.9),
]
